# System: MOLT-4
# protocol notes: Tested for antiproliferative activity against human tumor Molt-4 cell line up to 72 hrs at concentration of 5 ug/ml; Inactive
# Type: functional, cell-based
The source made the active and inactive calls. The calls are words filed in the database; no cut-off is given here.

{"columns": ["molecule", "assayed target", "Activity"],
 "data": [
  ["C=CCC1C(O)[C@@H](CO)O[C@H]1n1ccc(=O)[nH]c1=O (single isomer, unassigned)", "MOLT-4", "inactive"],
  ["CC1[C@@H](O)[C@@H](CO)O[C@H]1n1ccc(=O)[nH]c1=O (single isomer, unassigned; 5a)", "MOLT-4", "inactive"],
  ["C[C@@H]1C[C@@H](CO)O[C@H]1n1ccc(=O)[nH]c1=O", "MOLT-4", "inactive"],
  ["CCC[C@H]1C[C@@H](CO)OC1n1ccc(=O)[nH]c1=O (stereo partly specified)", "MOLT-4", "inactive"],
  ["C[C@H]1C[C@@H](CO)O[C@H]1n1ccc(=O)[nH]c1=O", "MOLT-4", "inactive"],
  ["CCCC1C(O)[C@@H](CO)O[C@H]1n1ccc(=O)[nH]c1=O (single isomer, unassigned)", "MOLT-4", "inactive"]
]}
